- Test system: right ventricular strips
- ASSAY_OVERVIEW: Cardiac stimulant activity in vitro, guinea pig ventricular strips (force of contraction)
- RECORDED_CONDITIONS: in vitro; read-out: EC50 value, inotropic activity on guinea pig ventricular strip
ENDPOINT: EC50 (µM)
Dear colleague, please return just the value in µM, with no unit written.

Some solved entries appear below for comparison.
>>> df
                                   compound  quantitative_readout
0  CNC(=NC#N)Nc1ccc(C2=NNC(=O)CC2C)cc1 (single isomer, unassigned; (-)) [Example 14]                  0.71
1  CC1CC(=O)NN=C1c1ccc(N)cc1 (single isomer, unassigned; (+)) [(+)-isomer]                  11.3
2  CNC(=NC#N)Nc1ccc(C2=NNC(=O)CC2C)cc1 (single isomer, unassigned; (+)) [Example 15]                   4.3

Consider now this further compound.
Task: Query (compound): CC1CC(=O)NN=C1c1ccc(N)cc1 (single isomer, unassigned; (-)) [(-)-isomer] ; field requested: EC50
Output: 1.4

* * *

- ASSAY_TARGET: Type (III) PDE (Cavia porcellus, UniProt H0VIU9)
- Construct: phosphodiesterases (PDE) isolated from guinea pig ventricle; forms separated by ion-exchange chromatography
- Sequence (H0VIU9 1-1132): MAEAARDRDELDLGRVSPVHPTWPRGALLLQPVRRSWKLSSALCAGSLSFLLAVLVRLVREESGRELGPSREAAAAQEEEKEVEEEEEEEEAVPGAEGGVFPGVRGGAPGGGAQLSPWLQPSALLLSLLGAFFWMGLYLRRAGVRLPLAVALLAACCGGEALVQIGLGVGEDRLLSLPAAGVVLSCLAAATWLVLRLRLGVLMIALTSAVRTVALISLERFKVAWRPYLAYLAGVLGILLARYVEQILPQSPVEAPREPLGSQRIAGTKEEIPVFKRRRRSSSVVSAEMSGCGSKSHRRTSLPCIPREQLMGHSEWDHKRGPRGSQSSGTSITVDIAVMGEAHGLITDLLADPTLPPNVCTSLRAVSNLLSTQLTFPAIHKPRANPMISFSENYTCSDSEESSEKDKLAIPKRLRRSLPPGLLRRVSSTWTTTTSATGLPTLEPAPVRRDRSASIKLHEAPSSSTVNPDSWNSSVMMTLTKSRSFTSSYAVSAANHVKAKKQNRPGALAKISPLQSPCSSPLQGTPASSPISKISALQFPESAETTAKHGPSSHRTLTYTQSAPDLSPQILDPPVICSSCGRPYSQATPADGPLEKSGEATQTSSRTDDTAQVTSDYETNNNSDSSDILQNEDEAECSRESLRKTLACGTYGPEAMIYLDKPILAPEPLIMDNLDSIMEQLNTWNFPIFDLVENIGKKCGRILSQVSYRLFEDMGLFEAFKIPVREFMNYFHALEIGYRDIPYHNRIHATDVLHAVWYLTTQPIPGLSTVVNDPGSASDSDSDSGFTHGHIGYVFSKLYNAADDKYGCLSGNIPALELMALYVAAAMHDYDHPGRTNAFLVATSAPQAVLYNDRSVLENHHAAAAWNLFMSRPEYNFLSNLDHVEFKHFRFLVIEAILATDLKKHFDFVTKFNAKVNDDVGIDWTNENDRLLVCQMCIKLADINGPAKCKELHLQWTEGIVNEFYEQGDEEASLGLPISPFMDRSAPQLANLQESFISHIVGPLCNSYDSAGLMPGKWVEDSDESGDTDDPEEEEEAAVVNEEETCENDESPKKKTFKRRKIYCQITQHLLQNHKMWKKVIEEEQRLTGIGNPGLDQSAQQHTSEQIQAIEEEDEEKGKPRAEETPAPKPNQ
- ASSAY_OVERVIEW: Phosphodiesterase Type (III) inhibition
- RECORDED_CONDITIONS: 1 μm cyclic AMP, 10 minutes; 10 minutes pre-incubation; read-out: IC50, inhibition of `low Km` Type (III) PDE activity
The label yes (1) is reserved for IC50 strictly under 40 µM; no (0) covers values equal to or above it.

Record excerpt, results attached:
>>> df
                                   molecule      cat
0  CC1CC(=O)NN=C1c1ccc(N)cc1 (racemic) [racemate]  yes (1)
1  CNC(=NC#N)Nc1ccc(C2=NNC(=O)CC2C)cc1 (single isomer, unassigned; (+)) [Example 15]  yes (1)
2  CNC(=NC#N)Nc1ccc(C2=NNC(=O)CC2C)cc1 (single isomer, unassigned; (-)) [Example 14]  yes (1)
3  CC1CC(=O)NN=C1c1ccc(N)cc1 (single isomer, unassigned; (-)) [(-)-isomer]  yes (1)

Now consider the entry below.
Task: Find out if reported IC50 for CC1CC(=O)NN=C1c1ccc(N)cc1 (single isomer, unassigned; (+)) [(+)-isomer] is less than 40 µM
Output: no (0)

* * *

- Tested on: hindquarters perfusion pressure
- ASSAY_OVERVIEW: Vasodilator activity, anaesthetised cat hindquarters autoperfused at constant blood flow
- Type: in vivo
- RECORDED_CONDITIONS: Felis catus; anaesthetised cat, constant blood flow; read-out: dose to decrease hindquarters perfusion pressure (vasodilatation) by 15%
Listing: ED15 of selected molecules
Dear colleague, please return just the value in mg/kg, with no unit written.

Some solved entries appear below for comparison.
>>> print(df.to_string())
                                   molecule  quantitative_readout
0  CC(C)NC(=NC#N)Nc1ccc(C2=NNC(=O)CC2C)cc1 (stereo not shown)                 0.082
1        CNC(=NC#N)Nc1ccc(C2=NNC(=O)CC2)cc1                     1
2  CCCCNC(=NC#N)Nc1ccc(C2=NNC(=O)CC2C)cc1 (stereo not shown)                  0.13

Consider now this further molecule.
Task: Query (molecule): CCNC(=NC#N)Nc1ccc(C2=NNC(=O)CC2C)cc1 (stereo not shown) ; field requested: ED15
Output: 0.044
